# system_tested: T1, NHERF3-1, first PDZ domain of NHERF3 (human, UniProt Q5T2W1 9-90)
# T1 sequence (looked up): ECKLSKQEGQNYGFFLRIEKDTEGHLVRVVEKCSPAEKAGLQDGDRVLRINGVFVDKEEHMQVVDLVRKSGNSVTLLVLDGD
# assay_summary: fluorescence polarisation; direct: N-terminally fluorescein-labelled PBM peptide (tracer) with increasing amounts of MBP-PDZ; 384-well plates; triplicate; direct binding model (ProFit)
# test_conditions: both partners purified
Where no end group is shown, it is not given here.
measured_endpoint: Kd (nM)

>  <binder>
fluorescein-RTRRETQL (source: synthetic peptide) [f16E6, fluorescein-labelled HPV16 E6 PBM peptide]

>  <measured_endpoint>
Kd

>  <measured>
2340

$$$$
